target: Dual specificity protein kinase CLK1 (Mus musculus) (UniProt P22518); assay: Inhibition of recombinant mouse CLK1 expressed in bacteria assessed as residual activity at 10 uM using GRSRSRSRSRSR as substrate in presence of [gamma-33P]ATP relative to control
Sequence (P22518 whole entry, looked up): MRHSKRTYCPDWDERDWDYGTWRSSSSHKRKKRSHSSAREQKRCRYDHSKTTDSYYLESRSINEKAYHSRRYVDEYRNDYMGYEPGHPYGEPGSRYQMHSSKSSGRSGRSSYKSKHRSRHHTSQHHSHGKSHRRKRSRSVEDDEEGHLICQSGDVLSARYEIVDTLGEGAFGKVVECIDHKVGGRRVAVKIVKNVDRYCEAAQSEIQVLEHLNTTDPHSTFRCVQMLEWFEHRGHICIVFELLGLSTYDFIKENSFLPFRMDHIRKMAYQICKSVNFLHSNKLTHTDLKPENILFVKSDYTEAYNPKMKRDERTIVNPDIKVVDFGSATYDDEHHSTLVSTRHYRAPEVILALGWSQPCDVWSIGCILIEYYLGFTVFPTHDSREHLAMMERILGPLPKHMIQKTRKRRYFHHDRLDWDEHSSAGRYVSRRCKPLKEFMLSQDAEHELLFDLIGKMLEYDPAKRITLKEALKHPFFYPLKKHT

- chem_smiles: "Nc1c2ccncc2cc2cnc(-c3ccccc3)nc12"
  test_system: "Dual specificity protein kinase CLK1 (Mus musculus) (UniProt P22518)"
  Activity: "32%"
- chem_smiles: "Nc1c2ccncc2cc2cnc(NCCCN3CCCC3)nc12"
  test_system: "Dual specificity protein kinase CLK1 (Mus musculus) (UniProt P22518)"
  Activity: "4%"
- chem_smiles: "Nc1c2ccncc2cc2cnc(NCCN3CCOCC3)nc12"
  test_system: "Dual specificity protein kinase CLK1 (Mus musculus) (UniProt P22518)"
  Activity: "4%"
- chem_smiles: "CN1CCN(CCNc2ncc3cc4cnccc4c(N)c3n2)CC1"
  test_system: "Dual specificity protein kinase CLK1 (Mus musculus) (UniProt P22518)"
  Activity: "4%"
- chem_smiles: "CN(C)CCNc1ncc2cc3cnccc3c([N+](=O)[O-])c2n1"
  test_system: "Dual specificity protein kinase CLK1 (Mus musculus) (UniProt P22518)"
  Activity: "5%"
- chem_smiles: "O=[N+]([O-])c1c2ccncc2cc2cnc(NCCCN3CCOCC3)nc12"
  test_system: "Dual specificity protein kinase CLK1 (Mus musculus) (UniProt P22518)"
  Activity: "3%"
- chem_smiles: "CCN(CC)CCCNc1ncc2cc3cnccc3c([N+](=O)[O-])c2n1"
  test_system: "Dual specificity protein kinase CLK1 (Mus musculus) (UniProt P22518)"
  Activity: "4%"
- chem_smiles: "Nc1c2ccncc2cc2cnc(NCCCN3CCCCC3)nc12"
  test_system: "Dual specificity protein kinase CLK1 (Mus musculus) (UniProt P22518)"
  Activity: "4%"
- chem_smiles: "Nc1c2ccncc2cc2cnc(NCCN3CCCCC3)nc12"
  test_system: "Dual specificity protein kinase CLK1 (Mus musculus) (UniProt P22518)"
  Activity: "11%"
- chem_smiles: "CN1CCN(CCCNc2ncc3cc4cnccc4c([N+](=O)[O-])c3n2)CC1"
  test_system: "Dual specificity protein kinase CLK1 (Mus musculus) (UniProt P22518)"
  Activity: "8%"
- chem_smiles: "CNc1ncc2cc3cnccc3c([N+](=O)[O-])c2n1"
  test_system: "Dual specificity protein kinase CLK1 (Mus musculus) (UniProt P22518)"
  Activity: "2%"
- chem_smiles: "CN1CCN(CCNc2ncc3cc4cnccc4c([N+](=O)[O-])c3n2)CC1"
  test_system: "Dual specificity protein kinase CLK1 (Mus musculus) (UniProt P22518)"
  Activity: "0%"
- chem_smiles: "Nc1c2ccncc2cc2cnc(NCCN3CCCC3)nc12"
  test_system: "Dual specificity protein kinase CLK1 (Mus musculus) (UniProt P22518)"
  Activity: "4%"
- chem_smiles: "O=[N+]([O-])c1c2ccncc2cc2cnc(NCCN3CCCCC3)nc12"
  test_system: "Dual specificity protein kinase CLK1 (Mus musculus) (UniProt P22518)"
  Activity: "1%"
- chem_smiles: "CN(C)CCCNc1ncc2cc3cnccc3c(N)c2n1"
  test_system: "Dual specificity protein kinase CLK1 (Mus musculus) (UniProt P22518)"
  Activity: "1%"
- chem_smiles: "O=[N+]([O-])c1c2ccncc2cc2cnc(-c3ccccc3)nc12"
  test_system: "Dual specificity protein kinase CLK1 (Mus musculus) (UniProt P22518)"
  Activity: "17%"
- chem_smiles: "CNc1ncc2cc3cnccc3c(N)c2n1"
  test_system: "Dual specificity protein kinase CLK1 (Mus musculus) (UniProt P22518)"
  Activity: "1%"
- chem_smiles: "CCN(CC)CCNc1ncc2cc3cnccc3c(N)c2n1"
  test_system: "Dual specificity protein kinase CLK1 (Mus musculus) (UniProt P22518)"
  Activity: "3%"
- chem_smiles: "CN1CCN(CCCNc2ncc3cc4cnccc4c(N)c3n2)CC1"
  test_system: "Dual specificity protein kinase CLK1 (Mus musculus) (UniProt P22518)"
  Activity: "6%"
- chem_smiles: "CN(C)CCCNc1ncc2cc3cnccc3c([N+](=O)[O-])c2n1"
  test_system: "Dual specificity protein kinase CLK1 (Mus musculus) (UniProt P22518)"
  Activity: "3%"
- chem_smiles: "O=[N+]([O-])c1c2ccncc2cc2cnc(NCCCN3CCCC3)nc12"
  test_system: "Dual specificity protein kinase CLK1 (Mus musculus) (UniProt P22518)"
  Activity: "5%"
- chem_smiles: "O=[N+]([O-])c1c2ccncc2cc2cnc(NCCCN3CCCCC3)nc12"
  test_system: "Dual specificity protein kinase CLK1 (Mus musculus) (UniProt P22518)"
  Activity: "7%"
- chem_smiles: "Nc1c2ccncc2cc2cnc(NCCCN3CCOCC3)nc12"
  test_system: "Dual specificity protein kinase CLK1 (Mus musculus) (UniProt P22518)"
  Activity: "4%"
- chem_smiles: "O=[N+]([O-])c1c2ccncc2cc2cnc(NCCN3CCCC3)nc12"
  test_system: "Dual specificity protein kinase CLK1 (Mus musculus) (UniProt P22518)"
  Activity: "7%"
- chem_smiles: "CCN(CC)CCNc1ncc2cc3cnccc3c([N+](=O)[O-])c2n1"
  test_system: "Dual specificity protein kinase CLK1 (Mus musculus) (UniProt P22518)"
  Activity: "8%"
- chem_smiles: "CN(C)CCNc1ncc2cc3cnccc3c(N)c2n1"
  test_system: "Dual specificity protein kinase CLK1 (Mus musculus) (UniProt P22518)"
  Activity: "21%"
- chem_smiles: "CCN(CC)CCCNc1ncc2cc3cnccc3c(N)c2n1"
  test_system: "Dual specificity protein kinase CLK1 (Mus musculus) (UniProt P22518)"
  Activity: "2%"
- chem_smiles: "O=[N+]([O-])c1c2ccncc2cc2cnc(NCCN3CCOCC3)nc12"
  test_system: "Dual specificity protein kinase CLK1 (Mus musculus) (UniProt P22518)"
  Activity: "5%"

src = ChEMBL document CHEMBL4665625
